Endpoint: IC50. System: 3',5'-cyclic-AMP phosphodiesterase 4D (Homo sapiens). Items follow.
Sequence (Q08499 whole entry): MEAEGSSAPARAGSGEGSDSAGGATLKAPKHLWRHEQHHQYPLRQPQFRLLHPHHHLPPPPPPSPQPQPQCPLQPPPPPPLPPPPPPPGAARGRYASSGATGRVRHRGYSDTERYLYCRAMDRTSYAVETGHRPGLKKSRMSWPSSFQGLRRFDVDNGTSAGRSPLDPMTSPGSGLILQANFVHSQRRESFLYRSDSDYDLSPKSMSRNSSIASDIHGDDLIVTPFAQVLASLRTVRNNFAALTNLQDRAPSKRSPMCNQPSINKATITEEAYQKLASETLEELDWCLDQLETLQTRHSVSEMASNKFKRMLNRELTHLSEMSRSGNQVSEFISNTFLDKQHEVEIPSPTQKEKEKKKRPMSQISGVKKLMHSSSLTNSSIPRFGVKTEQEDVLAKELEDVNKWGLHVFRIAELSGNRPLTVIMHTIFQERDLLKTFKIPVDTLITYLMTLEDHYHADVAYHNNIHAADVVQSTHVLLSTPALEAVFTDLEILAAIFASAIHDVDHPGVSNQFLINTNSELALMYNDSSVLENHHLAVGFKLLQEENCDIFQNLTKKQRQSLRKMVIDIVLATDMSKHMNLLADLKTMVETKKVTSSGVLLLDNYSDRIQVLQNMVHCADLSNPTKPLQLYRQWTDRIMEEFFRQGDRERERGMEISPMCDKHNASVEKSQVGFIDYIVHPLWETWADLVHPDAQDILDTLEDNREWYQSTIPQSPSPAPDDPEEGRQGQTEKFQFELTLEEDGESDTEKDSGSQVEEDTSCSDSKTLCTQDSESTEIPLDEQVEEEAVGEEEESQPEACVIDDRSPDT
endpoint-label: IC50 (nM)

* CCc1c(C)nc(-c2ccc(Cl)s2)nc1Nc1ccc(CC(=O)O)cc1 | 1700
* C=CCc1c(CCC)nc(-c2ccccc2)nc1Nc1ccc(C(=O)O)cc1 | 2400
* CCCc1c(C)nc(-c2ccccc2)nc1Nc1ccc(C(=O)O)cc1 | 7600
* C=CCc1c(C)nc(-c2csc(C)n2)nc1Nc1ccc(C(=O)O)cc1 | 12000
* C=CCc1c(C)nc(-c2ccsc2)nc1Nc1ccc(C(=O)O)cc1 | 990
* Cc1nc(-c2ccccc2)nc(Nc2ccc(C(=O)O)cc2)c1CO | 8000
* C=CCc1c(CC)nc(-c2ccccc2)nc1Nc1ccc(C(=O)O)cc1 | 82
* C=CCc1c(C)nc(-c2ccc(OC)cc2)nc1Nc1ccc(C(=O)O)cc1 | 2000
* C=CCc1c(C)nc(-c2cccc(C)c2)nc1Nc1ccc(C(=O)O)cc1 | 1500
* CCc1c(C)nc(-c2ccc(Br)s2)nc1Nc1ccc(CC(=O)O)cc1 | 1600

====

species on record: Homo sapiens; experiment: Selectivity ratio, ratio of IC50 for human PDE4D3 to IC50 for human PDE4B1
endpoint-label: Ratio IC50

- Cc1nc(-c2ccccc2)nc(Nc2ccc(C(=O)O)cc2)c1C=O: 5.2
- Cc1nc(-c2ccccc2)nc(Nc2ccc(C(=O)O)cc2)c1C: 7.9
- CCc1c(C)nc(-c2ccc(F)s2)nc1Nc1ccc(CC(=O)O)cc1F: 205
- C=CCc1c(C)nc(-c2ccccn2)nc1Nc1ccc(C(=O)O)cc1: 4.1
- CCCc1c(C)nc(-c2ccccc2)nc1Nc1ccc(C(=O)O)cc1: 5.6
- C=CCc1c(C)nc(-c2ccc(OC)cc2)nc1Nc1ccc(CC(=O)O)cc1: 8
- C=CCc1c(CCC)nc(-c2ccccc2)nc1Nc1ccc(C(=O)O)cc1: 3.4
- C=CCc1c(C)nc(-c2ccc(OC)s2)nc1Nc1ccc(C(=O)O)cc1: 9.8
- CCc1c(C)nc(-c2ccc(Br)s2)nc1Nc1ccc(CC(=O)O)cc1: 87
- C=CCc1c(C)nc(-c2ccsc2)nc1Nc1ccc(C(=O)O)cc1: 15
- C=CCc1c(C)nc(-c2ccc(C)s2)nc1Nc1ccc(C(=O)O)cc1: 8.6
- C=CCc1c(CC)nc(-c2ccccc2)nc1Nc1ccc(C(=O)O)cc1: 2.4
- CCc1c(C)nc(-c2ccc(Cl)s2)nc1Nc1ccc(CC(=O)O)cc1: 114
- C=CCc1c(C)nc(-c2cccc(C)c2)nc1Nc1ccc(CC(=O)O)cc1: 8
- CCc1c(C)nc(-c2ccc(SC)s2)nc1Nc1ccc(CC(=O)O)cc1: 43
- C=CCc1c(C)nc(-c2cccc(C)c2)nc1Nc1ccc(C(=O)O)cc1: 6.9
- C=CCc1c(C)nc(-c2csc(C)n2)nc1Nc1ccc(C(=O)O)cc1: 4.2
- C=CCc1c(C)nc(-c2ccc(OC)s2)nc1Nc1ccc(CC(=O)O)cc1: 29
- C=CCc1c(C)nc(-c2ccc(OC)cc2)nc1Nc1ccc(C(=O)O)cc1: 8.9
- CCc1c(C)nc(-c2cc(Br)c(C)s2)nc1Nc1ccc(CC(=O)O)cc1: 420
- CCc1c(C)nc(-c2ccccc2)nc1Nc1ccc(C(=O)O)cc1: 15
- C=CCc1c(C)nc(-c2cccs2)nc1Nc1ccc(C(=O)O)cc1: 11
- C=CCc1c(C)nc(-c2ccc(C)cc2)nc1Nc1ccc(C(=O)O)cc1: 13
- C=CCc1c(C)nc(-c2ccc(C)cc2)nc1Nc1ccc(CC(=O)O)cc1: 12
- C=CCc1c(C)nc(-c2ccc(C)s2)nc1Nc1ccc(CC(=O)O)cc1: 28
- Cc1nc(-c2ccccc2)nc(Nc2ccc(C(=O)O)cc2)c1C#N: 12
- C=CCc1c(C)nc(-c2cnccn2)nc1Nc1ccc(C(=O)O)cc1: 3.5
- C=CCc1c(C)nc(-c2ccccc2)nc1Nc1ccc(C(=O)O)cc1: 9.7
- Cc1nc(-c2ccccc2)nc(Nc2ccc(C(=O)O)cc2)c1CO: 15
